System: A549
Assay: Antiproliferative activity against human A549 cells incubated for 24 hrs by MTT assay
Type: functional, cell-based
Details: A549, 24 h

{"molecule": "COc1cc(C2CC(c3ccccc3)=NN2c2nc(-c3ccc(Br)cc3)cs2)ccc1OCc1ccccc1 (stereo not drawn)", "IC50 (µM)": 25.9}
{"molecule": "Brc1ccc(-c2csc(N3N=C(c4ccccc4)CC3c3ccc(Br)cc3)n2)cc1 (stereo not drawn)", "IC50 (µM)": 74.2}
{"molecule": "C#Cc1cccc(Nc2ncnc3cc(OCCOC)c(OCCOC)cc23)c1 [ERLOTINIB]", "IC50 (µM)": 34.2}

###

// reported Ratio IC50 per item
Test: Selectivity index, ratio of IC50 for rabbit articular chondrocytes to IC50 for human A-375
recorded.endpoint: Ratio IC50

{"compound": "C#Cc1cccc(Nc2ncnc3cc(OCCOC)c(OCCOC)cc23)c1 [ERLOTINIB]", "recorded.endpoint": "Ratio IC50", "experimental.result": 2.45}
{"compound": "COc1ccc(C2=NN(c3nc(-c4ccc(Br)cc4)cs3)C(c3ccc(OCc4ccccc4)c(OC)c3)C2)cc1 (stereo not given)", "recorded.endpoint": "Ratio IC50", "experimental.result": 21.1}
{"compound": "COc1cc(C2CC(c3ccccc3)=NN2c2nc(-c3ccc(Br)cc3)cs2)ccc1OCc1ccccc1 (stereo not given)", "recorded.endpoint": "Ratio IC50", "experimental.result": 19.4}
{"compound": "COc1ccc(C2=NN(c3nc(-c4ccc(Br)cc4)cs3)C(c3ccc(C)cc3)C2)cc1 (stereo not given)", "recorded.endpoint": "Ratio IC50", "experimental.result": 7.53}
{"compound": "COc1ccc(C2=NN(c3nc(-c4ccc(Br)cc4)cs3)C(c3ccc(F)cc3)C2)cc1 (stereo not given)", "recorded.endpoint": "Ratio IC50", "experimental.result": 9.04}

###

Assay: Cytotoxicity against rabbit articular chondrocytes incubated for 24 hrs by MTT assay
Format: toxicity, cell-based, Oryctolagus cuniculus, Chondrocyte
recorded.endpoint: IC50 at 24 h (µM)

{"compound": "COc1ccc(C2=NN(c3nc(-c4ccc(Br)cc4)cs3)C(c3ccc(OCc4ccccc4)c(OC)c3)C2)cc1 (stereo not given)", "experimental.result": 435}
{"compound": "COc1ccc(C2=NN(c3nc(-c4ccc(Br)cc4)cs3)C(c3ccc(C)cc3)C2)cc1 (stereo not given)", "experimental.result": 151}
{"compound": "COc1cc(C2CC(c3ccccc3)=NN2c2nc(-c3ccc(Br)cc3)cs2)ccc1OCc1ccccc1 (stereo not given)", "experimental.result": 357}
{"compound": "COc1ccc(C2=NN(c3nc(-c4ccc(Br)cc4)cs3)C(c3ccc(F)cc3)C2)cc1 (stereo not given)", "experimental.result": 146}
{"compound": "C#Cc1cccc(Nc2ncnc3cc(OCCOC)c(OCCOC)cc23)c1", "experimental.result": 63.5}

###

pIC50 by entry:
System: A549
Experiment: Antiproliferative activity against human A549 cells incubated for 24 hrs by MTT assay
Type: functional, cell-based
Conditions: A549, 24 h
pIC50: −log10 of the molar value.

{"compound": "COc1ccc(C2=NN(c3nc(-c4ccc(Br)cc4)cs3)C(c3ccc(C)cc3)C2)cc1 (centres undefined)", "pIC50": 4.58}
{"compound": "COc1ccc(C2CC(c3ccccc3)=NN2c2nc(-c3ccc(Br)cc3)cs2)cc1 (centres undefined)", "pIC50": 4.43}
{"compound": "COc1ccc(C2=NN(c3nc(-c4ccc(Br)cc4)cs3)C(c3ccc(OCc4ccccc4)c(OC)c3)C2)cc1 (centres undefined)", "pIC50": 4.56}
{"compound": "COc1ccc(C2=NN(c3nc(-c4ccc(Br)cc4)cs3)C(c3ccc(F)cc3)C2)cc1 (centres undefined)", "pIC50": 4.69}
{"compound": "COc1ccc(C2=NN(c3nc(-c4ccc(Br)cc4)cs3)C(c3ccc(OC)cc3)C2)cc1 (centres undefined)", "pIC50": 4.29}
{"compound": "Clc1ccc(C2CC(c3ccccc3)=NN2c2nc(-c3ccc(Br)cc3)cs2)cc1 (centres undefined)", "pIC50": 4.28}
{"compound": "COc1ccc(C2=NN(c3nc(-c4ccc(Br)cc4)cs3)C(c3ccc(Cl)cc3)C2)cc1 (centres undefined)", "pIC50": 4.32}
{"compound": "COc1ccc(C2=NN(c3nc(-c4ccc(Br)cc4)cs3)C(c3ccc(Br)cc3)C2)cc1 (centres undefined)", "pIC50": 4.34}
{"compound": "Cc1ccc(C2CC(c3ccccc3)=NN2c2nc(-c3ccc(Br)cc3)cs2)cc1 (centres undefined)", "pIC50": 3.90}
